# Tested on: HT29 colon
# Experimental details: NCI-60 one-dose screen, 48 h
# Experimental conditions: 10 µM unless noted
The panel holds about 83,000 compounds, 20% with a hit somewhere; the sample as a whole holds those more often. Activity calls are given as the source filed them. How the source made its calls: active means growth percent below 10; inactive means the rest.
Outcome field: choose from true = active, false = inactive

Example entries and their recorded answers appear below.
{"Compound": "N#C/C(C(=O)c1ccccc1)=C1/C(=O)Nc2ccc(Br)cc21", "Class name": "false"}
{"Compound": "O=[N+]([O-])c1cc(CCl)ccc1OCCBr", "Class name": "false"}
{"Compound": "C#CCNC(=O)CC[C@]1(C)[C@H]2CC[C@@H]3[C@@H]([C@@](C)(O)CCC=C(C)C)CC[C@@]3(C)[C@]2(C)CC[C@H]1C(=C)C", "Class name": "true"}
{"Compound": "CC(C)(C)c1cc(C(=O)N2CCC(C(=O)NCCN)CC2)cc(C(C)(C)C)c1", "Class name": "false"}
{"Compound": "Cc1cc(NN=C(c2ccc(O)cc2)c2ccc(O)cc2)c([N+](=O)[O-])cc1[N+](=O)[O-]", "Class name": "false"}

Exercise: What did the test return for COc1ccc2c(c1)C(C)Cc1c(Cl)ncnc1N2C (stereo not given) ?
Key: true

Exercise: Identify the outcome logged in this assay for the compound shown: C=C(C)[C@@H]1CC[C@]2(C(=O)NCCNCCNCCN)CC[C@]3(C)[C@H](CC[C@@H]4[C@@]5(C)CC[C@H](O)C(C)(C)[C@@H]5CC[C@]43C)[C@@H]12
Key: true

Exercise: Assay result, entry Cc1ccc(C2=C/C(=C/c3ccc(Br)cc3)C(=O)N2CCc2ccc(S(N)(=O)=O)cc2)cc1 — outcome?
Key: false

Exercise: Call for entry COc1ccc(/C=C/C(=C/c2c(O)[nH]c3cc(Br)ccc23)N=O)cc1 :
Key: false

Exercise: What call does the record list for CC1=CC[C@@H]2C(C)(C)[C@@H](O)CC[C@@]2(C)[C@@H]1COc1ccc2ccc(=O)oc2c1 ?
Key: false

Exercise: Could you check what this test reported for O=C(Nc1ccc(Oc2ccc(F)cc2)c(Cl)c1)c1cnccn1 ?
Key: false

Exercise: Test call, this compound: Nn1c(Nc2ccc(S(=O)(=O)Nc3ncccn3)cc2)nnc(/C=C/c2c(O)ccc3ccccc23)c1=O
Key: false

Exercise: Fill in: this test's call for CC1(C)CC[C@]23CC[C@]4(C)[C@H](CC[C@@H]5[C@@]6(C)C/C(=C/c7cccnc7)C(=O)C(C)(C)[C@@H]6CC[C@]54C)[C@H]2[C@H]1OC3=O is ___
Key: false
